// data source = paper PMC3037356

TESTED TARGET: BosR (rBosR) (UniProt O51592 1-176)
TEST DETAILS: EMSA; 20 mM Hepes pH 7.5, 50 mM KCl, 1 mM MgCl2, 1 mM DTT, 5% glycerol, 100 ug/ml BSA, 50 ug/ml poly[d(A-T)], 30 fmol probe in 20 ul, 37 C 30 min
TEST CONTEXT: protein: recombinant; tags: none (His6-SUMO tag removed by SUMO protease); chain copies: 2; label: digoxigenin 3' end; blunt

- BINDER: "ZM156 (BS1 3' DR) (dsDNA) DNA 1: GCTGAGATCTGTCGAATCAATTACAAAAAAGTAAATAATTCAAAAAATACTCCCCCTAAA DNA 2: TTTAGGGGGAGTATTTTTTGAATTATTTACTTTTTTGTAATTGATTCGACAGATCTCAGC"
  binding result: "binds"
- BINDER: "ZM160 (5' of BS3) (dsDNA) DNA 1: TCACAATATTCAAGAAAGGGGAGAAAATATAATAACTATGAACATATTTAGTAATGAGGA DNA 2: TCCTCATTACTAAATATGTTCATAGTTATTATATTTTCTCCCCTTTCTTGAATATTGTGA"
  binding result: "no binding"
- BINDER: "ZM155 (BS1 5' DR) (dsDNA) DNA 1: CTCAAAGCTTTGGCCTTGCCGATTTAATTTACAATCAATTACAAAGCTGAGATCTGTCGA DNA 2: TCGACAGATCTCAGCTTTGTAATTGATTGTAAATTAAATCGGCAAGGCCAAAGCTTTGAG"
  binding result: "binds"
- BINDER: "ZM147 (dsDNA) DNA 1: AAAAAGCTGAGATCTGTCGACATCCATGGTGGCACAGTTTTTGCATGAAAATTAAGTAGT DNA 2: ACTACTTAATTTTCATGCAAAAACTGTGCCACCATGGATGTCGACAGATCTCAGCTTTTT"
  binding result: "no binding"
- BINDER: "ZM213 (DR1 mutant) (dsDNA) DNA 1: ATTTTATATCCTAGGCCGTTTAAAACCATTTTTAAATTAAATTGGCACAGTTTTTGCATG DNA 2: CATGCAAAAACTGTGCCAATTTAATTTAAAAATGGTTTTAAACGGCCTAGGATATAAAAT"
  binding result: "binds"
